System: human liver cancer cell HepG2
Test: CCK-8 cell proliferation inhibition, HepG2
Format: cell-based
Settings: listed as (Z)-3,4,5-trimethoxy-4′-ethoxy-3′-aminosulfamatestilbene; read-out: IC50 HepG2
From the text: Take more than 90% of live cells for experiments. Cell proliferation inhibition test uses EnoGeneCell™ Counting Kit-8 (CCK-8) cell viability detection kit. […]
pIC50: −log10 of the molar value.
quantityKind: pIC50

Summary for this compound, CCOc1ccc(/C=C\c2cc(OC)c(OC)c(OC)c2)cc1OS(N)(=O)=O : pIC50 is > 6.30

====

tested on: human cervical cancer cell HeLa; assay: CCK-8 cell proliferation inhibition, HeLa; format: cell-based; conditions: Homo sapiens, HeLa; read-out: IC50 HeLa
quantityKind: pIC50
Note: pIC50 values are expressed as the negative base-10 logarithm of concentration in M.

Record COc1ccc(/C=C\c2cc(OC)c(OC)c(OC)c2)cc1OS(N)(=O)=O , field pIC50: 6.47

Now, please, on to the next molecule.
Short answer for CCOc1ccc(/C=C\c2cc(OC)c(OC)c(OC)c2)cc1OS(N)(=O)=O : pIC50 was 6.32
